- Test system: rodent lifetime carcinogenesis bioassay, tumor incidence TD50
- PROTOCOL: carcinogenic potency in animals, long-term in vivo studies, CPDB compilation (AID 1745844)
- CONDITION_PARAMETERS: mouse; strain B6C3F1; females; in feed; site: urinary bladder; lesion: transitional-cell carcinoma; dosed 96 weeks; study length 96 weeks

- SUBSTANCE_SMILES: "O=c1cc[nH]c(=O)[nH]1"
  TD50: "1450 mg/kg/day"

----------
- System: rodent lifetime carcinogenesis bioassay, tumor incidence TD50
- PROTOCOL: carcinogenic potency in animals, long-term in vivo studies, CPDB compilation (AID 1745844)
- CONDITION_PARAMETERS: mouse; strain B6C3F1; males; inhaled; site: heart; lesion: hemangiosarcoma; dosed 80 weeks; study length 105 weeks
QUANTITY: TD50

- SUBSTANCE_SMILES: "C=CC(=C)C"
  READOUT_VALUE: "39000 mg/kg/day"

----------
- Test system: rodent lifetime carcinogenesis bioassay, tumor incidence TD50
- PROTOCOL: carcinogenic potency in animals, long-term in vivo studies, CPDB compilation (AID 1745844)
- CONDITION_PARAMETERS: rat; strain Fischer 344; females; inhaled; site: ovary; lesion: granulosa-cell carcinoma + granulosa-cell tumor + thecoma; dosed 103 weeks; study length 105 weeks

- MOLECULE: "CCC1CO1 (stereo unspecified)"
  TD50, mg/kg/day: 545

----------
- System: rodent lifetime carcinogenesis bioassay, tumor incidence TD50
- PROTOCOL: carcinogenic potency in animals, long-term in vivo studies, CPDB compilation (AID 1745844)
- CONDITION_PARAMETERS: mouse; strain CDF1; females; in feed; site: blood vessels; lesion: hemangioendothelial sarcoma; dosed 82 weeks; study length 82 weeks

- SUBSTANCE_SMILES: "Nc1ccc2nc3ccccn3c2n1"
  TD50, mg/kg/day: 43

----------
- Tested on: rodent lifetime carcinogenesis bioassay, tumor incidence TD50
- PROTOCOL: carcinogenic potency in animals, long-term in vivo studies, CPDB compilation (AID 1745844)
- CONDITION_PARAMETERS: rat; strain Fischer 344; females; in drinking water; site: liver; lesion: neoplastic nodule; dosed 98 weeks; study length 104 weeks
QUANTITY: TD50 (mg/kg/day)

- SUBSTANCE_SMILES: "Cc1ccc(S(=O)(=O)Oc2ccc(N=Nc3ccc(-c4ccc(N=Nc5c(O)ccc6cc(S(=O)(=O)O)cc(S(=O)(=O)O)c56)c(C)c4)cc3C)cc2)cc1"
  READOUT_VALUE: 18

----------
- Test system: rodent lifetime carcinogenesis bioassay, tumor incidence TD50
- PROTOCOL: carcinogenic potency in animals, long-term in vivo studies, CPDB compilation (AID 1745844)
- CONDITION_PARAMETERS: mouse; strain B6C3F1; males; inhaled; site: forestomach + Harderian gland + liver + lung; lesion: squamous-cell carcinoma + squamous-cell papilloma + adenoma + carcinoma + hepatocellular adenoma + hepatocellular carcinoma + alveol; dosed 26 weeks; study length 53 weeks

- SUBSTANCE_SMILES: "C=CC(=C)C"
  TD50, mg/kg/day: 355

----------
- System: rodent lifetime carcinogenesis bioassay, tumor incidence TD50
- PROTOCOL: carcinogenic potency in animals, long-term in vivo studies, CPDB compilation (AID 1745844)
- CONDITION_PARAMETERS: rat; strain Wistar; males; inhaled; site: lung; lesion: adenoma; dosed 78 weeks; study length 130 weeks

- SUBSTANCE_SMILES: "[O]=[Cr](=[O])([OH])[O][Cr](=[O])(=[O])[OH]"
  TESTED_ON: "rodent lifetime carcinogenesis bioassay, tumor incidence TD50"
  TD50 [mg/kg/day]: 14.4

----------
- System: rodent lifetime carcinogenesis bioassay, tumor incidence TD50
- PROTOCOL: carcinogenic potency in animals, long-term in vivo studies, CPDB compilation (AID 1745844)
- CONDITION_PARAMETERS: rat; strain Fischer 344; males; in feed; site: liver; lesion: hepatocellular carcinoma; dosed 78 weeks; study length 106 weeks
QUANTITY: TD50

- SUBSTANCE_SMILES: "Nc1ccc2c(c1)C(=O)c1ccccc1C2=O"
  READOUT_VALUE: "268 mg/kg/day"
- SUBSTANCE_SMILES: "CCn1c2ccccc2c2cc(N)ccc21"
  READOUT_VALUE: "156 mg/kg/day"
- SUBSTANCE_SMILES: "c1ccc(NNc2ccccc2)cc1"
  READOUT_VALUE: "4.67 mg/kg/day"

----------
- Tested on: rodent lifetime carcinogenesis bioassay, tumor incidence TD50
- PROTOCOL: carcinogenic potency in animals, long-term in vivo studies, CPDB compilation (AID 1745844)
- CONDITION_PARAMETERS: rat; strain ACI; females; in feed; site: urinary bladder; lesion: papilloma; dosed 77 weeks; study length 77 weeks
Calls of active or inactive are those of the source. How the calls were made is not given here.

- SUBSTANCE_SMILES: "C[C@@H]1O[C@@H](OC[C@H]2O[C@@H](Oc3c(-c4ccc(O)c(O)c4)oc4cc(O)cc(O)c4c3=O)[C@H](O)[C@@H](O)[C@@H]2O)[C@H](O)[C@H](O)[C@H]1O"
  TD50: "8910 mg/kg/day (inactive)"

----------
- Tested on: rodent lifetime carcinogenesis bioassay, tumor incidence TD50
- PROTOCOL: carcinogenic potency in animals, long-term in vivo studies, CPDB compilation (AID 1745844)
- CONDITION_PARAMETERS: mouse; strain B6C3F1; females; inhaled; site: lung; lesion: alveolar/bronchiolar adenoma + alveolar/bronchiolar carcinoma; dosed 104 weeks; study length 105 weeks
QUANTITY: TD50 (mg/kg/day)

- SUBSTANCE_SMILES: "O=CCCCC=O"
  TESTED_ON: "rodent lifetime carcinogenesis bioassay, tumor incidence TD50"
  QUANTITY: "TD50"
  ENDPOINT_UNIT: "mg/kg/day"
  READOUT_VALUE: 17.4

----------
- System: rodent lifetime carcinogenesis bioassay, tumor incidence TD50
- PROTOCOL: carcinogenic potency in animals, long-term in vivo studies, CPDB compilation (AID 1745844)
- CONDITION_PARAMETERS: rat; strain Fischer 344; females; in drinking water; site: mammary tissue, wider than the gland; lesion: one or several types; types not named; dosed 104 weeks; study length 128 weeks
QUANTITY: TD50 (mg/kg/day)

- SUBSTANCE_SMILES: "O=NO"
  READOUT_VALUE: 115

----------
- System: rodent lifetime carcinogenesis bioassay, tumor incidence TD50
- PROTOCOL: carcinogenic potency in animals, long-term in vivo studies, CPDB compilation (AID 1745844)
- CONDITION_PARAMETERS: rat; strain Marshall; males; by gavage; site: any site (literature study); lesion: several types; types named in the paper; dosed 103 weeks; study length 104 weeks

- SUBSTANCE_SMILES: "ClC=C(Cl)Cl"
  TESTED_ON: "rodent lifetime carcinogenesis bioassay, tumor incidence TD50"
  ENDPOINT_UNIT: "mg/kg/day"
  TD50: 199

----------
- Test system: rodent lifetime carcinogenesis bioassay, tumor incidence TD50
- PROTOCOL: carcinogenic potency in animals, long-term in vivo studies, CPDB compilation (AID 1745844)
- CONDITION_PARAMETERS: rat; strain Osborne-Mendel; males; in feed; site: any site (literature study); lesion: several types; types named in the paper; dosed 78 weeks; study length 111 weeks
QUANTITY: TD50 (mg/kg/day)

- SUBSTANCE_SMILES: "Clc1ccc(C(c2ccc(Cl)cc2)C(Cl)Cl)cc1"
  TESTED_ON: "rodent lifetime carcinogenesis bioassay, tumor incidence TD50"
  QUANTITY: "TD50"
  ENDPOINT_UNIT: "mg/kg/day"
  READOUT_VALUE: 82.6

----------
A collection of molecules and their measured TD50
- System: rodent lifetime carcinogenesis bioassay, tumor incidence TD50
- PROTOCOL: carcinogenic potency in animals, long-term in vivo studies, CPDB compilation (AID 1745844)
- CONDITION_PARAMETERS: rat; strain Fischer 344; males; by gavage; site: forestomach; lesion: squamous-cell papilloma; dosed 94 weeks; study length 104 weeks

- SUBSTANCE_SMILES: "ClCC(Cl)CCl"
  TD50: "1.53 mg/kg/day"
- SUBSTANCE_SMILES: "CC(C)=CCl"
  TD50: "67.1 mg/kg/day"

----------
- Tested on: rodent lifetime carcinogenesis bioassay, tumor incidence TD50
- PROTOCOL: carcinogenic potency in animals, long-term in vivo studies, CPDB compilation (AID 1745844)
- CONDITION_PARAMETERS: rat; strain Fischer 344; males; in feed; site: lung; lesion: alveolar/bronchiolar carcinoma; dosed 12 weeks; study length 103 weeks

- SUBSTANCE_SMILES: "OCC(CO)(CBr)CBr"
  TESTED_ON: "rodent lifetime carcinogenesis bioassay, tumor incidence TD50"
  ENDPOINT_UNIT: "mg/kg/day"
  TD50: 327

----------
- System: rodent lifetime carcinogenesis bioassay, tumor incidence TD50
- PROTOCOL: carcinogenic potency in animals, long-term in vivo studies, CPDB compilation (AID 1745844)
- CONDITION_PARAMETERS: rat; strain ACI; males; in feed; site: adrenal gland; lesion: cortical adenoma; dosed 77 weeks; study length 77 weeks
Activity calls are given as the source filed them. The rule behind the calls is not given here.
QUANTITY: TD50

- SUBSTANCE_SMILES: "O=c1c(O)c(-c2ccc(O)cc2)oc2cc(O)cc(O)c12"
  READOUT_VALUE: "17.9 mg/kg/day (inactive)"
- SUBSTANCE_SMILES: "C[C@@H]1O[C@@H](OC[C@H]2O[C@@H](Oc3c(-c4ccc(O)c(O)c4)oc4cc(O)cc(O)c4c3=O)[C@H](O)[C@@H](O)[C@@H]2O)[C@H](O)[C@H](O)[C@H]1O"
  READOUT_VALUE: "5710 mg/kg/day (inactive)"

Each recorded value in this set is attributed to PubChem BioAssay AID1745844.
